Reference for the values: patent US20250368745A1

# targetOfAssay: T1, human IL-18BP (human, UniProt O95998 31-194)
# T1 construct: UniProt printed as 095998; also called hIL-18BP
# T1 sequence: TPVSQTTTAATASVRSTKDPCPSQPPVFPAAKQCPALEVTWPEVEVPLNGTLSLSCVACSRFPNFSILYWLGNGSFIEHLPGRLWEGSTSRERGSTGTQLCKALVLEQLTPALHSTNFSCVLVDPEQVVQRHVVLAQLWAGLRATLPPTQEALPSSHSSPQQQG
# assayDetails: BLI, apparent KD
Readings of Kd for the listed binders

{"binder": "SA301a LC-T96I (antibody, V domains shown) VH: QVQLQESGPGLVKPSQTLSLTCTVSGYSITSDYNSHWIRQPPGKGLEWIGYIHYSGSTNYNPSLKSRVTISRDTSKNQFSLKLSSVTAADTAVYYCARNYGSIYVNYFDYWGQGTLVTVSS VL: EIVLTQSPATLSLSPGERATLSCSASSSVSYMYWYQQKPGQAPRPLIYRTSNLASGIPARFSGSGSGTDFTLTISSLEPEDFAVYYCQQYHSYPIFGGGTKVEIK", "unitString": "nM", "Kd": 0.12}
{"binder": "SA301a LC-S93V (antibody, V domains shown) VH: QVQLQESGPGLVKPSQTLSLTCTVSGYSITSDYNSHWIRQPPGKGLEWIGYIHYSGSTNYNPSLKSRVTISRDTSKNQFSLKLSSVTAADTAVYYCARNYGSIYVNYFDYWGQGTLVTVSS VL: EIVLTQSPATLSLSPGERATLSCSASSSVSYMYWYQQKPGQAPRPLIYRTSNLASGIPARFSGSGSGTDFTLTISSLEPEDFAVYYCQQYHVYPTFGGGTKVEIK", "unitString": "nM", "Kd": 0.19}
{"binder": "SA301a LC-P95F (antibody, V domains shown) VH: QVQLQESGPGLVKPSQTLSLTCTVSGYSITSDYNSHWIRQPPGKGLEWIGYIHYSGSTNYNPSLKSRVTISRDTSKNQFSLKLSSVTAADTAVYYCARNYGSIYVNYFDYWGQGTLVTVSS VL: EIVLTQSPATLSLSPGERATLSCSASSSVSYMYWYQQKPGQAPRPLIYRTSNLASGIPARFSGSGSGTDFTLTISSLEPEDFAVYYCQQYHSYFTFGGGTKVEIK", "unitString": "nM", "Kd": 2.01}
